experiment: Solubility in phosphate buffered saline; assay type: physicochemical
MEASURED_ENDPOINT: solubility (µM)

>>> df
                            molecule_smiles  obs_value
0  CN1C(=O)[C@@H]2CN(S(=O)(=O)c3ccc4c(c3)OCO4)C[C@@H]2c2cnccc21        235
1  CN1C(=O)[C@@H]2CN(S(=O)(=O)c3ccc4c(c3)OCO4)C[C@@H]2c2ncccc21          7

====

molecular target: Glycine receptor alpha-3/beta (Homo sapiens) (UniProt O75311+P48167); assay: Positive allosteric modulation of human glycine alpha3beta receptor expressed in HEK293T cells assessed as compound concentration required to induce up to 3-fold leftward shift in glycine-induced increase in chloride ion flux after 4 mins by Schild plot analysis; type: cell-based
Listed below: MEC values for each entry.
MEASURED_ENDPOINT: MEC

In [3]: df
Out[3]:
                                   molecule  obs_value
0  CN1C(=O)[C@@H]2CN(S(=O)(=O)c3ccc4c(c3)OCO4)C[C@@H]2c2ccccc21    0.78 µM
1  CN1C(=O)[C@]2(C#N)CN(S(=O)(=O)c3ccc4c(c3)OCO4)C[C@@H]2c2cnccc21 (racemic)    > 25 µM
2  CN1C(=O)[C@H]2CN(S(=O)(=O)c3ccc4c(c3)OCO4)C[C@H]2c2ccccc21     6.3 µM
3  CN1C(=O)[C@@H]2CN(S(=O)(=O)c3ccc4c(c3)OCO4)C[C@@H]2c2cc(C#N)ccc21 (racemic)    12.5 µM
4  C[C@H]1[C@@H]2C(=O)N(C)c3ccncc3[C@@H]2CN1S(=O)(=O)c1ccc2c(c1)OCO2    > 25 µM
5  CN1C(=O)[C@H]2CN(S(=O)(=O)c3ccc4occc4c3)C[C@H]2c2cnccc21    > 25 µM
6  CN1C(=O)[C@@H]2CN(S(=O)(=O)c3ccc4c(c3)OCO4)C[C@@H]2c2cccnc21 (racemic)     3.1 µM
7  C[C@H]1[C@H]2C(=O)N(C)c3ccncc3[C@H]2CN1S(=O)(=O)c1ccc2c(c1)OCO2   0.025 µM
8  C[C@H]1[C@@H]2c3cnccc3N(C)C(=O)[C@@H]2CN1S(=O)(=O)c1ccc2c(c1)OCO2    > 25 µM
9  CN1C(=O)[C@@H]2CN(S(=O)(=O)c3ccn4ccnc4c3)C[C@@H]2c2cnccc21     3.1 µM

====

target: Glycine receptor alpha-3/beta (Homo sapiens) (UniProt O75311+P48167); assay: Positive allosteric modulation of human glycine alpha3beta receptor expressed in HEK293T cells assessed as compound concentration required to induce up to 3-fold leftward shift in glycine-induced increase in chloride ion flux after 4 mins by Schild plot analysis; format: cell-based
Measured MEC, listed per entry for reference.
MEASURED_ENDPOINT: MEC (µM)

>>> df
                                    compound  relational_operator  obs_value
 0  CN1C(=O)[C@@H]2CN(S(=O)(=O)c3ccc4c(c3)OCO4)C[C@@H]2c2cc(F)ccc21 (racemic)                    =       0.78
 1  CN1C(=O)[C@@H]2CN(S(=O)(=O)c3ccc4scnc4c3)C[C@@H]2c2cnccc21                    =       1.56
 2  C[C@@H]1[C@@H]2c3cnccc3N(C)C(=O)[C@@H]2CN1S(=O)(=O)c1ccc2c(c1)OCO2                    >         25
 3  C[C@@H]1[C@H]2C(=O)N(C)c3ccncc3[C@H]2CN1S(=O)(=O)c1ccc2c(c1)OCO2                    >         25
 4  CN1C(=O)[C@@H]2CN(S(=O)(=O)c3ccc4ocnc4c3)C[C@@H]2c2cnccc21                    =       0.39
 5  CN1C(=O)[C@@H]2CN(S(=O)(=O)c3ccc4c(c3)OCO4)C[C@@H]2c2ccncc21 (racemic)                    =        6.3
 6  C[C@H]1[C@H]2c3cnccc3N(C)C(=O)[C@H]2CN1S(=O)(=O)c1ccc2c(c1)OCO2                    >         25
 7  CN1C(=O)[C@@H]2CN(S(=O)(=O)c3ccc4c(c3)OCC4)C[C@@H]2c2cnccc21                    =       1.56
 8  CN1C(=O)[C@@H]2CN(S(=O)(=O)c3ccc4c(c3)CCO4)C[C@@H]2c2cnccc21                    =        3.1
 9  CN1C(=O)[C@@H]2CN(S(=O)(=O)c3ccc4ccoc4c3)C[C@@H]2c2cnccc21                    =       1.56
10  C[C@@H]1[C@@H]2C(=O)N(C)c3ccncc3[C@@H]2CN1S(=O)(=O)c1ccc2c(c1)OCO2                    =        3.1
11  CN1C(=O)[C@]2(F)CN(S(=O)(=O)c3ccc4c(c3)OCO4)C[C@@H]2c2cnccc21 (racemic)                    >         25
12  CN1C(=O)[C@@H]2CN(S(=O)(=O)c3ccc4c(c3)OCO4)C[C@@H]2c2ncccc21                    =       0.78
13  CN1C(=O)[C@@H]2CN(S(=O)(=O)c3ccc4c(c3)OCO4)C[C@@H]2c2cnccc21                    =        0.2
14  CN1C(=O)[C@@H]2CN(S(=O)(=O)c3ccc4ncn(C)c4c3)C[C@@H]2c2cnccc21                    =        3.1
15  CN1C(=O)[C@H]2CN(S(=O)(=O)c3ccc4c(c3)OCO4)C[C@H]2c2cnccc21                    >         25
16  CN1C(=O)[C@@H]2CN(S(=O)(=O)c3ccc4c(c3)OCO4)C[C@@H]2c2cc(O)ccc21                    =       0.39
